Attribution: ChEMBL document CHEMBL4350976

# Protocol notes: Retention time of the compound using 0.1% TFA in water and 0.1% TFA in acetonitrile-water (80:20 v/v) as eluents by RP-HPLC analysis
# Format: physicochemical
Where a SMILES comes first, the peptide text is derived from it. The star is where a group is joined. X1 = COc1cccc2c1C(=O)c1c(O)c3c(c(O)c1C2=O)C[C@@](O)(/C(C)=N/OCC(=O)*)C[C@@H]3O[C@H]1C[C@H](N)[C@H](O)[C@H](C)O1
Assignment: determine reported Retention time for the given compounds.

These recorded examples may help you get a feel for the data.
COc1cccc2c1C(=O)c1c(O)c3c(c(O)c1C2=O)C[C@@](O)(/C(C)=N/OCC(=O)N[C@@H](CC(C)C)C(=O)N[C@@H](CCCNC(=N)N)C(=O)N[C@@H](CCCNC(=N)N)C(=O)N[C@@H](Cc1ccc(O)cc1)C(=O)N[C@H](C(=O)N[C@@H](Cc1cnc[nH]1)C(=O)N[C@@H](CC(C)C)C(=O)NCC(=O)N[C@@H](C)C(=O)N[C@@H](C)C(=O)N[C@H](C(N)=O)[C@@H](C)O)C(C)C)C[C@@H]3O[C@H]1C[C@H](N)[C@H](O)[C@H](C)O1 (X1-LRRYVHLGAAT-NH2) ... 27.4 to 30.1 min
COc1cccc2c1C(=O)c1c(O)c3c(c(O)c1C2=O)C[C@@](O)(/C(C)=N/OCC(=O)N[C@@H](CC(C)C)C(=O)N[C@@H](CCCNC(=N)N)C(=O)N[C@@H](CCCNC(=N)N)C(=O)N[C@@H](Cc1ccc(O)cc1)C(=O)N[C@H](C(=O)N[C@@H](Cc1cnc[nH]1)C(=O)N[C@@H](CC(C)C)C(=O)N[C@@H](Cc1ccccc1)C(=O)N[C@@H](Cc1ccc(O)cc1)C(=O)N[C@@H](CCCCN)C(=O)N[C@H](C(N)=O)[C@@H](C)O)C(C)C)C[C@@H]3O[C@H]1C[C@H](N)[C@H](O)[C@H](C)O1 (X1-LRRYVHLFYKT-NH2) ... 30.5 to 32 min
COc1cccc2c1C(=O)c1c(O)c3c(c(O)c1C2=O)C[C@@](O)(/C(C)=N/OCC(=O)N[C@@H](CC(C)C)C(=O)N[C@@H](CCCNC(=N)N)C(=O)N[C@@H](CCCNC(=N)N)C(=O)N[C@@H](Cc1ccc(O)cc1)C(=O)N[C@H](C(=O)N[C@@H](Cc1cnc[nH]1)C(=O)N[C@@H](CC(C)C)C(=O)N[C@@H](Cc1ccccc1)C(=O)N[C@@H](Cc1ccc(O)cc1)C(=O)N[C@@H](CCC(=O)O)C(=O)N[C@H](C(N)=O)[C@@H](C)O)C(C)C)C[C@@H]3O[C@H]1C[C@H](N)[C@H](O)[C@H](C)O1 (X1-LRRYVHLFYET-NH2) ... 31.9 to 33.1 min

Read the next record carefully.
Which Retention time reading was recorded for the compound COc1cccc2c1C(=O)c1c(O)c3c(c(O)c1C2=O)C[C@@](O)(/C(C)=N/OCC(=O)N[C@@H](CC(C)C)C(=O)N[C@@H](CCCNC(=N)N)C(=O)N[C@@H](CCCNC(=N)N)C(=O)N[C@@H](Cc1ccc(O)cc1)C(=O)N[C@H](C(=O)N[C@@H](Cc1cnc[nH]1)C(=O)N[C@@H](CC(C)C)C(=O)N[C@@H](Cc1ccccc1)C(=O)N[C@@H](Cc1ccc(O)cc1)C(=O)N[C@@H](CC(C)C)C(=O)N[C@H](C(N)=O)[C@@H](C)O)C(C)C)C[C@@H]3O[C@H]1C[C@H](N)[C@H](O)[C@H](C)O1 (X1-LRRYVHLFYLT-NH2) ? 30.7 to 32.3 min

###

# Protocol notes: Drug uptake in human HT-29 cells at 100 uM incubated for 3 hrs by flow cytometry
# Type: ADME, cell-based
# Particulars: ht-29, 3 h
Where a SMILES comes first, the peptide text is derived from it. The star is where a group is joined. X1 = COc1cccc2c1C(=O)c1c(O)c3c(c(O)c1C2=O)C[C@@](O)(/C(C)=N/OCC(=O)*)C[C@@H]3O[C@H]1C[C@H](N)[C@H](O)[C@H](C)O1
Test readout: Drug uptake

COc1cccc2c1C(=O)c1c(O)c3c(c(O)c1C2=O)C[C@@](O)(/C(C)=N/OCC(=O)N[C@@H](CC(C)C)C(=O)N[C@@H](CCCNC(=N)N)C(=O)N[C@@H](CCCNC(=N)N)C(=O)N[C@@H](Cc1ccc(O)cc1)C(=O)N[C@H](C(=O)N[C@@H](C)C(=O)N[C@@H](CC(C)C)C(=O)NCC(=O)N[C@@H](Cc1ccc(O)cc1)C(=O)N[C@@H](C)C(=O)N[C@H](C(N)=O)[C@@H](C)O)C(C)C)C[C@@H]3O[C@H]1C[C@H](N)[C@H](O)[C@H](C)O1 (X1-LRRYVALGYAT-NH2) ... Active
COc1cccc2c1C(=O)c1c(O)c3c(c(O)c1C2=O)C[C@@](O)(/C(C)=N/OCC(=O)N[C@@H](CC(C)C)C(=O)N[C@@H](CCCNC(=N)N)C(=O)N[C@@H](CCCNC(=N)N)C(=O)N[C@@H](Cc1ccc(O)cc1)C(=O)N[C@H](C(=O)N[C@@H](Cc1cnc[nH]1)C(=O)N[C@@H](C)C(=O)NCC(=O)N[C@@H](Cc1ccc(O)cc1)C(=O)N[C@@H](C)C(=O)N[C@H](C(N)=O)[C@@H](C)O)C(C)C)C[C@@H]3O[C@H]1C[C@H](N)[C@H](O)[C@H](C)O1 (X1-LRRYVHAGYAT-NH2) ... Active
COc1cccc2c1C(=O)c1c(O)c3c(c(O)c1C2=O)C[C@@](O)(/C(C)=N/OCC(=O)N[C@@H](CC(C)C)C(=O)N[C@@H](CCCNC(=N)N)C(=O)N[C@@H](CCCNC(=N)N)C(=O)N[C@@H](Cc1ccc(O)cc1)C(=O)N[C@@H](C)C(=O)N[C@@H](Cc1cnc[nH]1)C(=O)N[C@@H](CC(C)C)C(=O)NCC(=O)N[C@@H](Cc1ccc(O)cc1)C(=O)N[C@@H](C)C(=O)N[C@H](C(N)=O)[C@@H](C)O)C[C@@H]3O[C@H]1C[C@H](N)[C@H](O)[C@H](C)O1 (X1-LRRYAHLGYAT-NH2) ... Active

###

# Protocol notes: Stability in 2.5% fetal bovine serum containing medium at 30 uM measured after 24 hrs by LC/MS analysis
# Type: ADME, cell-free, Bos taurus
# Particulars: cattle
Where a SMILES comes first, the peptide text is derived from it. The star is where a group is joined. X1 = COc1cccc2c1C(=O)c1c(O)c3c(c(O)c1C2=O)C[C@@](O)(/C(C)=N/OCC(=O)*)C[C@@H]3O[C@H]1C[C@H](N)[C@H](O)[C@H](C)O1
Test readout: Stability

COc1cccc2c1C(=O)c1c(O)c3c(c(O)c1C2=O)C[C@@](O)(/C(C)=N/OCC(=O)N[C@@H](CC(C)C)C(=O)N[C@@H](CCCNC(=N)N)C(=O)N[C@@H](CCCNC(=N)N)C(=O)N[C@@H](Cc1ccc(O)cc1)C(=O)N[C@H](C(=O)N[C@@H](Cc1cnc[nH]1)C(=O)N[C@@H](CC(C)C)C(=O)N[C@@H](CO)C(=O)N[C@@H](Cc1ccc(O)cc1)C(=O)N[C@@H](C)C(=O)N[C@H](C(N)=O)[C@@H](C)O)C(C)C)C[C@@H]3O[C@H]1C[C@H](N)[C@H](O)[C@H](C)O1 (X1-LRRYVHLSYAT-NH2) ... Stable
COc1cccc2c1C(=O)c1c(O)c3c(c(O)c1C2=O)C[C@@](O)(/C(C)=N/OCC(=O)N[C@@H](CC(C)C)C(=O)N[C@@H](CCCNC(=N)N)C(=O)N[C@@H](CCCNC(=N)N)C(=O)N[C@@H](Cc1ccc(O)cc1)C(=O)N[C@H](C(=O)N[C@@H](Cc1cnc[nH]1)C(=O)N[C@@H](CC(C)C)C(=O)N[C@@H](Cc1ccccc1)C(=O)N[C@@H](Cc1ccc(O)cc1)C(=O)N[C@@H](CC(C)C)C(=O)N[C@H](C(N)=O)[C@@H](C)O)C(C)C)C[C@@H]3O[C@H]1C[C@H](N)[C@H](O)[C@H](C)O1 (X1-LRRYVHLFYLT-NH2) ... Stable

###

# Protocol notes: Drug uptake in human HT-29 cells at 100 uM incubated for 3 hrs by flow cytometry
# Assay type: ADME, cell-based
# Particulars: ht-29, 3 h
Where a SMILES comes first, the peptide text is derived from it. The star is where a group is joined. X1 = COc1cccc2c1C(=O)c1c(O)c3c(c(O)c1C2=O)C[C@@](O)(/C(C)=N/OCC(=O)*)C[C@@H]3O[C@H]1C[C@H](N)[C@H](O)[C@H](C)O1
Test readout: Drug uptake

COc1cccc2c1C(=O)c1c(O)c3c(c(O)c1C2=O)C[C@@](O)(/C(C)=N/OCC(=O)N[C@@H](CC(C)C)C(=O)N[C@@H](CCCNC(=N)N)C(=O)N[C@@H](CCCNC(=N)N)C(=O)N[C@@H](Cc1ccc(O)cc1)C(=O)N[C@H](C(=O)N[C@@H](Cc1cnc[nH]1)C(=O)N[C@@H](CC(C)C)C(=O)NCC(=O)N[C@@H](C)C(=O)N[C@@H](C)C(=O)N[C@H](C(N)=O)[C@@H](C)O)C(C)C)C[C@@H]3O[C@H]1C[C@H](N)[C@H](O)[C@H](C)O1 (X1-LRRYVHLGAAT-NH2) ... Active
COc1cccc2c1C(=O)c1c(O)c3c(c(O)c1C2=O)C[C@@](O)(/C(C)=N/OCC(=O)N[C@@H](CC(C)C)C(=O)N[C@@H](CCCNC(=N)N)C(=O)N[C@@H](CCCNC(=N)N)C(=O)N[C@@H](Cc1ccc(O)cc1)C(=O)N[C@H](C(=O)N[C@@H](Cc1cnc[nH]1)C(=O)N[C@@H](CC(C)C)C(=O)NCC(=O)N[C@@H](Cc1ccc(O)cc1)C(=O)N[C@@H](C)C(=O)N[C@@H](C)C(N)=O)C(C)C)C[C@@H]3O[C@H]1C[C@H](N)[C@H](O)[C@H](C)O1 (X1-LRRYVHLGYAA-NH2) ... Active
